Test: In vivo kinetics experiment (radioactivity distribution)
Parameters: species or system Wistar male rat
Conditions: rat, caudal vein, 10 min after administration
Method: Each of Compounds [^18F] 100, [^18F] 200, [^123I] 400, [^18F] 500, and [^123I] 601 to 610 obtained by the methods described in Examples 2, 4, 7, 9, 11, 13, 15, 17, 19, 21, 23, 25, 27, and 29, or [^123I] […] From the thus sacrificed rat, blood and organs (heart, lung, stomach, liver, spleen, small intestine, large intestine, kidney, bladder (including urine), muscle (lower limbs), brain, adrenal gland, testis, fat, femur, or thyroid gland) were excised, and the weights thereof were then measured. […]
measurement_name: Radioactivity distribution Testis (% ID/g)
Expressed in % ID/g, but write only the number.

// sample FCCn1c(-c2cncc(Cn3ccnc3)c2)nc2cc(F)c([123I])cc21 [[^123I] 400] , its Radioactivity distribution Testis was 0.07

// sample [123I]c1ccc2nc(-c3cncc(Cn4ccnc4)c3)n(C3CC3)c2c1 [[^123I] 602] , its Radioactivity distribution Testis was 0.07

// sample Fc1cc2nc(-c3cncc(Cn4ccnc4)c3)n(CC[18F])c2cc1Br [[^18F] 200] , its Radioactivity distribution Testis was 0.04

// sample Fc1cc2nc(-c3cncc(Cn4ccnc4)c3)n(CC[18F])c2cc1Cl [[^18F] 100] , its Radioactivity distribution Testis was 0.05

// sample [123I]c1ccc2nc(-c3cncc(Cn4ccnn4)c3)n(C3CC3)c2c1 [[^123I] 603] , its Radioactivity distribution Testis was 0.04

// sample Fc1cc2nc(-c3cncc(Cn4ccnc4)c3)n(CCC[18F])c2cc1Cl [[^18F] 500] , its Radioactivity distribution Testis was 0.06

====

Assay: In vivo kinetics experiment (radioactivity distribution)
Set-up: species or system Wistar male rat
Conditions: 60 min after administration; rat i.v.; mean ± SD
measurement_name: Radioactivity distribution Testis (% ID/g)
Expressed in % ID/g, but write only the number.

// sample Cn1c(-c2cncc(Cn3ccnc3)c2)nc2ccc([123I])cc21 [[^123I] 607] , its Radioactivity distribution Testis was 0.11

// sample COc1cc([123I])cc2c1nc(-c1cncc(Cn3ccnc3)c1)n2C1CC1 [[^123I] 609] , its Radioactivity distribution Testis was 0.07

// sample COC(=O)c1cncn1[C@H](C)c1ccc(I)cc1 [[^123I] IMTO, (R)-[^123I]iodometomidate, reference compound] , its Radioactivity distribution Testis was 0.33

// sample FCCn1c(-c2cncc(Cn3cncc3[123I])c2)nc2cc(F)c(Cl)cc21 [[^123I] 610] , its Radioactivity distribution Testis was 0.32

// sample FCCn1c(-c2cncc(Cn3ccnc3)c2)nc2ccc([123I])cc21 [[^123I] 604] , its Radioactivity distribution Testis was 0.05

// sample Fc1cc2nc(-c3cncc(Cn4ccnc4)c3)n(Cc3ccc([123I])cc3)c2cc1Cl [[^123I] 605] , its Radioactivity distribution Testis was 0.03

// sample CCn1c(-c2cncc(Cn3ccnc3)c2)nc2ccc([123I])cc21 [[^123I] 608] , its Radioactivity distribution Testis was 0.09

// sample CC(C)n1c(-c2cncc(Cn3ccnc3)c2)nc2ccc([123I])cc21 [[^123I] 606] , its Radioactivity distribution Testis was 0.16

====

Assay: In vivo kinetics experiment (radioactivity distribution)
Set-up: species or system Wistar male rat
Conditions: 60 min after administration; rat i.v.; mean ± SD
// not fulfilled strictly below 3 in Adrenal gland/small intestine ratio of radioactivity accumulation; fulfilled otherwise

Is reported Adrenal gland/small intestine ratio of radioactivity accumulation greater than or equal to 3 here: COC(=O)c1cncn1[C@H](C)c1ccc(I)cc1 [[^123I] IMTO, (R)-[^123I]iodometomidate, reference compound]
fulfilled

Is reported Adrenal gland/small intestine ratio of radioactivity accumulation greater than or equal to 3 here: COc1cc([123I])cc2c1nc(-c1cncc(Cn3ccnc3)c1)n2C1CC1 [[^123I] 609]
not fulfilled

Is reported Adrenal gland/small intestine ratio of radioactivity accumulation greater than or equal to 3 here: CCn1c(-c2cncc(Cn3ccnc3)c2)nc2ccc([123I])cc21 [[^123I] 608]
fulfilled

Is reported Adrenal gland/small intestine ratio of radioactivity accumulation greater than or equal to 3 here: Fc1cc2nc(-c3cncc(Cn4ccnc4)c3)n(Cc3ccc([123I])cc3)c2cc1Cl [[^123I] 605]
not fulfilled

Is reported Adrenal gland/small intestine ratio of radioactivity accumulation greater than or equal to 3 here: Cn1c(-c2cncc(Cn3ccnc3)c2)nc2ccc([123I])cc21 [[^123I] 607]
fulfilled

Is reported Adrenal gland/small intestine ratio of radioactivity accumulation greater than or equal to 3 here: FCCn1c(-c2cncc(Cn3ccnc3)c2)nc2ccc([123I])cc21 [[^123I] 604]
fulfilled

Is reported Adrenal gland/small intestine ratio of radioactivity accumulation greater than or equal to 3 here: FCCn1c(-c2cncc(Cn3cncc3[123I])c2)nc2cc(F)c(Cl)cc21 [[^123I] 610]
fulfilled

Is reported Adrenal gland/small intestine ratio of radioactivity accumulation greater than or equal to 3 here: CC(C)n1c(-c2cncc(Cn3ccnc3)c2)nc2ccc([123I])cc21 [[^123I] 606]
fulfilled

====

Assay: In vivo kinetics experiment (radioactivity distribution)
Set-up: species or system Wistar male rat
Settings: rat, caudal vein, 30 min after administration
Experimental: Each of Compounds [^18F] 100, [^18F] 200, [^123I] 400, [^18F] 500, and [^123I] 601 to 610 obtained by the methods described in Examples 2, 4, 7, 9, 11, 13, 15, 17, 19, 21, 23, 25, 27, and 29, or [^123I] […] From the thus sacrificed rat, blood and organs (heart, lung, stomach, liver, spleen, small intestine, large intestine, kidney, bladder (including urine), muscle (lower limbs), brain, adrenal gland, testis, fat, femur, or thyroid gland) were excised, and the weights thereof were then measured. […]
// 0 (no) strictly below 3 % ID/g in Radioactivity distribution Small intestine; 1 (yes) otherwise

Is reported Radioactivity distribution Small intestine greater than or equal to 3 % ID/g here: Fc1cc2nc(-c3cncc(Cn4ccnc4)c3)n(CCC[18F])c2cc1Cl [[^18F] 500]
1 (yes)

Is reported Radioactivity distribution Small intestine greater than or equal to 3 % ID/g here: Fc1cc2nc(-c3cncc(Cn4ccnc4)c3)n(CC[18F])c2cc1Cl [[^18F] 100]
0 (no)

Is reported Radioactivity distribution Small intestine greater than or equal to 3 % ID/g here: FCCn1c(-c2cncc(Cn3ccnc3)c2)nc2cc(F)c([123I])cc21 [[^123I] 400]
0 (no)

Is reported Radioactivity distribution Small intestine greater than or equal to 3 % ID/g here: Fc1cc2nc(-c3cncc(Cn4ccnc4)c3)n(CC[18F])c2cc1Br [[^18F] 200]
0 (no)

Is reported Radioactivity distribution Small intestine greater than or equal to 3 % ID/g here: [123I]c1ccc2nc(-c3cncc(Cn4ccnc4)c3)n(C3CC3)c2c1 [[^123I] 602]
0 (no)

Is reported Radioactivity distribution Small intestine greater than or equal to 3 % ID/g here: [123I]c1ccc2nc(-c3cncc(Cn4ccnn4)c3)n(C3CC3)c2c1 [[^123I] 603]
1 (yes)

====

Provide the recorded Radioactivity distribution Testis for the entries that follow.
Assay: In vivo kinetics experiment (radioactivity distribution)
Parameters: species or system Wistar male rat
Conditions: rat, caudal vein, 30 min after administration
Expressed in % ID/g, but write only the number.

// sample Fc1cc2nc(-c3cncc(Cn4ccnc4)c3)n(CCC[18F])c2cc1Cl [[^18F] 500] , its Radioactivity distribution Testis was 0.08

// sample Fc1cc2nc(-c3cncc(Cn4ccnc4)c3)n(CC[18F])c2cc1Br [[^18F] 200] , its Radioactivity distribution Testis was 0.05

// sample [123I]c1ccc2nc(-c3cncc(Cn4ccnc4)c3)n(C3CC3)c2c1 [[^123I] 602] , its Radioactivity distribution Testis was 0.12

// sample Fc1cc2nc(-c3cncc(Cn4ccnc4)c3)n(CC[18F])c2cc1Cl [[^18F] 100] , its Radioactivity distribution Testis was 0.06

// sample FCCn1c(-c2cncc(Cn3ccnc3)c2)nc2cc(F)c([123I])cc21 [[^123I] 400] , its Radioactivity distribution Testis was 0.12

// sample [123I]c1ccc2nc(-c3cncc(Cn4ccnn4)c3)n(C3CC3)c2c1 [[^123I] 603] , its Radioactivity distribution Testis was 0.05

====

Provide the recorded Radioactivity distribution Kidney for the entries that follow.
Assay: In vivo kinetics experiment (radioactivity distribution)
Parameters: species or system Wistar male rat
Conditions: rat, caudal vein, 10 min after administration
Description: Each of Compounds [^18F] 100, [^18F] 200, [^123I] 400, [^18F] 500, and [^123I] 601 to 610 obtained by the methods described in Examples 2, 4, 7, 9, 11, 13, 15, 17, 19, 21, 23, 25, 27, and 29, or [^123I] […] From the thus sacrificed rat, blood and organs (heart, lung, stomach, liver, spleen, small intestine, large intestine, kidney, bladder (including urine), muscle (lower limbs), brain, adrenal gland, testis, fat, femur, or thyroid gland) were excised, and the weights thereof were then measured. […]
Expressed in % ID/g, but write only the number.

// sample [123I]c1ccc2nc(-c3cncc(Cn4ccnc4)c3)n(C3CC3)c2c1 [[^123I] 602] , its Radioactivity distribution Kidney was 1.54

// sample Fc1cc2nc(-c3cncc(Cn4ccnc4)c3)n(CC[18F])c2cc1Cl [[^18F] 100] , its Radioactivity distribution Kidney was 1.70

// sample Fc1cc2nc(-c3cncc(Cn4ccnc4)c3)n(CCC[18F])c2cc1Cl [[^18F] 500] , its Radioactivity distribution Kidney was 1.28

// sample Fc1cc2nc(-c3cncc(Cn4ccnc4)c3)n(CC[18F])c2cc1Br [[^18F] 200] , its Radioactivity distribution Kidney was 1.39

// sample [123I]c1ccc2nc(-c3cncc(Cn4ccnn4)c3)n(C3CC3)c2c1 [[^123I] 603] , its Radioactivity distribution Kidney was 2.09

// sample FCCn1c(-c2cncc(Cn3ccnc3)c2)nc2cc(F)c([123I])cc21 [[^123I] 400] , its Radioactivity distribution Kidney was 1.54
